assayedSystem: recombinant human CD3ε/δ heterodimer (human) (UniProt P07766)
Sequence (P07766 23-126, stated change not applied, chain 1 of 2): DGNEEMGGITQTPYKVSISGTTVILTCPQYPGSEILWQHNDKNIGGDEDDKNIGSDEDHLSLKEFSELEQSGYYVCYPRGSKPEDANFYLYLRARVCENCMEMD
Sequence (P04234 22-105, stated change not applied, chain 2 of 2, further chain): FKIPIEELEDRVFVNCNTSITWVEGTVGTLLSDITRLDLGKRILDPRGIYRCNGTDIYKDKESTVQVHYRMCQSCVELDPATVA
measurementDescription: ELISA, coated CD3ε/δ
measuredEndpoint: Absorbance (450 nm)
I'd appreciate a reply containing only the number, no unit.

Field request: Absorbance (450 nm) | item: D06 (antibody, human IgG1, lambda, L234A L235A, V domains shown) VH: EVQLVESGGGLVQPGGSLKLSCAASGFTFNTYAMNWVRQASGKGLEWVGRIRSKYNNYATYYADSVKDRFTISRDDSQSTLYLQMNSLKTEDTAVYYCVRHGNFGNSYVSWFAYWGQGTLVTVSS VL: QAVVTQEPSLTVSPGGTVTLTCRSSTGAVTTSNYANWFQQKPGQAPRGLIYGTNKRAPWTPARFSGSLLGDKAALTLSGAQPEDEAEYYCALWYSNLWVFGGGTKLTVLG
0.136

Field request: Absorbance (450 nm) | item: C01 (antibody, human IgG1, lambda, L234A L235A, V domains shown) VH: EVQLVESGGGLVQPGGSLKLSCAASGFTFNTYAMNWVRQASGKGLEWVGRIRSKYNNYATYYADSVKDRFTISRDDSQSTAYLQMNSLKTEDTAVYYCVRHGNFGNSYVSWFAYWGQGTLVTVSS VL: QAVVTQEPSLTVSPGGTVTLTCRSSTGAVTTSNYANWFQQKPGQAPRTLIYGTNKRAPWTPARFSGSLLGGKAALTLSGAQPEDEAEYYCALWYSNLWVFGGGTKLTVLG
0.131

Field request: Absorbance (450 nm) | item: D05 (antibody, human IgG1, lambda, L234A L235A, V domains shown) VH: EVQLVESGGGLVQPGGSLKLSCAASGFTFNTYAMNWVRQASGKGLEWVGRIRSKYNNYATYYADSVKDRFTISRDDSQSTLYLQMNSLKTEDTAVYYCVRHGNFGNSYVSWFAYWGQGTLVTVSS VL: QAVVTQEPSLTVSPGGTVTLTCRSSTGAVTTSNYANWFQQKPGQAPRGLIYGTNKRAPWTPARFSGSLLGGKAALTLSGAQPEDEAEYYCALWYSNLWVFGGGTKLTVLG
0.121

The reported measurements were obtained from patent US20200317779A1.
